The entries below are paired with their reported IC50.
molecular target: human NAMPT enzyme (His-hNAMPT) (Homo sapiens (Human)); assay: NAMPT enzymatic inhibition assay (fluorescence, NADH product); assay type: biochemical; details: [BPS]; read-out: NAMPT IC50 (μM) [BPS]

O=C(NCC[C@@H]1[C@H]2CN(c3cccc4ccccc34)C[C@@H]12)c1cc2ccncc2o1 : 0.01 to 0.49 µM
O=C(NCC[C@@H]1[C@H]2CN(S(=O)(=O)C3CCOCC3)C[C@@H]12)c1cnc2nccn2c1 : 1 to 29 µM
CC1(OC(=O)N2C[C@@H]3[C@@H](CNC(=O)/C=C/c4cccnc4)[C@@H]3C2)COC1 : 1 to 29 µM

# evaluate next
I am curious: what IC50 value has been reported for CC(C)(C)OC(=O)N1C[C@@H]2[C@H](C1)[C@H]2C(O)CNC(=O)/C=C/c1cccnc1 (stereo partly shown) ?
0.01 to 0.49 µM

====

The entries below are paired with their reported IC50.
target: human NAMPT enzyme (His-hNAMPT) (Homo sapiens (Human), UniProt P43490); assay: NAMPT enzymatic inhibition assay (fluorescence, NADH product); format: biochemical; details: [BPS]; read-out: NAMPT IC50 (μM) [BPS]
Sequence (P43490 whole entry): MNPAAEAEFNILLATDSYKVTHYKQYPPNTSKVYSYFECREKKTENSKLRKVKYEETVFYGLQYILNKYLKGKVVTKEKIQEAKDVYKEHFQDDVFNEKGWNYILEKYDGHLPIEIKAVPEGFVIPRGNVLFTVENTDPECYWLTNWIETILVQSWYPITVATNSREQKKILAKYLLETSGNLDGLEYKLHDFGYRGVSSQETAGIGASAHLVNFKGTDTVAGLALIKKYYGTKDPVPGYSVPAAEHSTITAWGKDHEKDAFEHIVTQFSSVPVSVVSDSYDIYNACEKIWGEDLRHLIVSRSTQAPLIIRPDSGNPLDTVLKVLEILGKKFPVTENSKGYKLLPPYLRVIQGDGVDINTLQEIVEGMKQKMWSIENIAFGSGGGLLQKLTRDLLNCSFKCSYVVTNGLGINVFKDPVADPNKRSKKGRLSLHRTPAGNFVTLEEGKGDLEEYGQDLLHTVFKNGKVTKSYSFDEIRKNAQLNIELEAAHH

Record excerpt, results attached:
CC(C)(C)OC(=O)N1C[C@H]2C[C@H](CNC(=O)N3Cc4ccncc4C3)C[C@H]2C1 [Example 273] : 1 to 29 µM
Cc1cccc(C)c1N1C[C@@H]2[C@@H](CCNC(=O)/C=C/c3cccnc3)[C@@H]2C1 [Example 133] : 0.01 to 0.49 µM
CC(C)(C)OC(=O)N1C[C@@H]2[C@@H](CNC(=O)/C=C/c3cccnc3)[C@@H]2C1 [Example 232] : 0.01 to 0.49 µM

I am curious: what IC50 value has been reported for CC(C)(C)OC(=O)N1C[C@@H]2[C@@H](CCNC(=O)NCc3cccnc3)[C@@H]2C1 [Example 19] ?
0.01 to 0.49 µM

Queued: O=C(NCC[C@@H]1[C@H]2CN(C(=O)Nc3ccccc3)C[C@@H]12)c1cnc2nccn2c1 [Example 78]
0.5 to 0.99 µM

Queued: Nc1ccc(/C=C/C(=O)NCC[C@@H]2[C@H]3CN(c4ncccn4)C[C@@H]23)cn1 [Example 189]
0.01 to 0.49 µM

Queued: Cc1nc(C)c(C(=O)N2C[C@@H]3[C@@H](CCNC(=O)/C=C/c4cccnc4)[C@@H]3C2)o1 [Example 105]
0.01 to 0.49 µM

Queued: CC1(OC(=O)N2C[C@@H]3[C@@H](CCNC(=O)c4nc5ccncc5s4)[C@@H]3C2)COC1 [Example 62]
1 to 29 µM

Queued: N#CN=C(NCC[C@@H]1[C@H]2CN(C(=O)c3ccccc3)C[C@@H]12)Nc1ccncc1 [Example 228]
0.01 to 0.49 µM

====

The entries below are paired with their reported IC50.
biological target: human NAMPT enzyme (His-hNAMPT) (Homo sapiens (Human)); test: NAMPT enzymatic inhibition assay (fluorescence, NADH product); assay type: biochemical; conditions: [HDB]; read-out: NAMPT IC50 (μM) [HDB]

Record excerpt, results attached:
O=C(NCC[C@@H]1[C@H]2CN(C(=O)OC3CCOCC3)C[C@@H]12)c1cc2ccncc2s1 [Example 85] : 0.01 to 0.49 µM
CC(=O)Nc1cccc(N2C[C@@H]3[C@@H](CCNC(=O)/C=C/c4cccnc4)[C@@H]3C2)c1 [Example 184] : 0.01 to 0.49 µM
O=C(/C=C/c1cccnc1)NCC[C@@H]1[C@H]2CN(c3nc(OCCN4CCOCC4)ncc3F)C[C@@H]12 [Example 331] : < 0.01 µM

Item O=C(/C=C/c1cccnc1)NCC[C@@H]1[C@H]2CN(Cc3cncnc3)C[C@@H]12 [Example 298] with human NAMPT enzyme (His-hNAMPT) (Homo sapiens (Human)) - IC50?
< 0.01 µM

Queued: O=C(/C=C/c1cccnc1)NCC[C@@H]1[C@H]2CN(c3ncncn3)C[C@@H]12 [Example 170]
0.01 to 0.49 µM

Queued: O=C(/C=C/c1cccnc1)NCC[C@@H]1[C@H]2CN(c3cccc(C(F)(F)F)c3)C(=O)[C@@H]12 (racemic) [Example 262]
0.01 to 0.49 µM

Queued: O=C(NCC[C@@H]1[C@H]2CN(c3ccccc3)C[C@@H]12)c1cc(-c2cccnc2)on1 [Example 134]
< 0.01 µM

Queued: Nc1ccc(/C=C/C(=O)NCC[C@@H]2[C@H]3CN(c4cccc(C(F)(F)F)c4)C(=O)[C@@H]23)cn1 (racemic) [Example 263]
0.01 to 0.49 µM

Queued: O=C(/C=C/c1cccnc1)NCC[C@@H]1[C@H]2CN(Cc3cnc(Cl)nc3)C[C@@H]12 [Example 316]
0.01 to 0.49 µM

Queued: O=C(/C=C/c1cccnc1)NCC[C@@H]1[C@H]2CN(c3ccccc3Cl)C[C@@H]12 [Example 144]
0.01 to 0.49 µM

Queued: O=C(NCC[C@@H]1[C@H]2CN(c3ncccn3)C[C@@H]12)c1cc2ccncc2s1 [Example 200]
0.01 to 0.49 µM

Queued: CCOP(=O)(OCC)c1cccc(N2C[C@@H]3[C@@H](CCNC(=O)/C=C/c4cccnc4)[C@@H]3C2)c1 [Example 338]
0.01 to 0.49 µM
